// reported log10 Ki per item
- test_system: Cytochrome P450 2C9 (Homo sapiens)
- test_summary: Inhibition of reconstituted CYP2C9
- Type: ADME
observed_property: log10 Ki (log10 of the value in µM)

| mol | test_system | test_result |
| --- | --- | --- |
| O=C(Nc1ccccc1)c1cc(-c2cccnc2)nc2ccccc12 | Cytochrome P450 2C9 (Homo sapiens) | 0.61 |
| Cc1cc(C)c2nc(-c3cccnc3)cc(C(=O)Nc3ccc4ccccc4c3)c2c1 | Cytochrome P450 2C9 (Homo sapiens) | 0.93 |
| O=C(c1cc(-c2cccnc2)nc2ccccc12)N1CCC(N2CCCC2)CC1 | Cytochrome P450 2C9 (Homo sapiens) | 1.38 |
| O=C(Nc1ccccc1)c1cc(-c2ccccn2)nc2ccccc12 | Cytochrome P450 2C9 (Homo sapiens) | 0.54 |
| O=C(Nc1cccc2ccccc12)c1cc(-c2cccnc2)nc2ccccc12 | Cytochrome P450 2C9 (Homo sapiens) | 0.10 |
| O=C(Nc1ccc2ccccc2c1)c1cc(-c2cccnc2)nc2ccccc12 | Cytochrome P450 2C9 (Homo sapiens) | 0.06 |
| O=C(c1cc(-c2ccccn2)nc2ccccc12)N1CCCCC1 | Cytochrome P450 2C9 (Homo sapiens) | 1.37 |
| O=C(NCc1cccc2ccccc12)c1cc(-c2ccncc2)nc2ccccc12 | Cytochrome P450 2C9 (Homo sapiens) | -0.90 |
| O=C(NCc1cccc2ccccc12)c1cc(-c2cccnc2)nc2ccccc12 | Cytochrome P450 2C9 (Homo sapiens) | -0.82 |
| O=C(Nc1cccc2ccccc12)c1cc(-c2ccccn2)nc2ccccc12 | Cytochrome P450 2C9 (Homo sapiens) | 0.12 |
| O=C(Nc1ccc2ccccc2c1)c1cc(-c2ccccn2)nc2ccccc12 | Cytochrome P450 2C9 (Homo sapiens) | 1.03 |
| O=C(Nc1ccc2ccccc2c1)c1cc(-c2ccncc2)nc2ccc(Br)cc12 | Cytochrome P450 2C9 (Homo sapiens) | -2.05 |
| O=C(c1cc(-c2ccncc2)nc2ccccc12)N1CCC(N2CCCC2)CC1 | Cytochrome P450 2C9 (Homo sapiens) | 0.56 |
| O=C(Nc1ccc2ccccc2c1)c1cc(-c2ccncc2)nc2ccc(Cl)cc12 | Cytochrome P450 2C9 (Homo sapiens) | -1.92 |
| O=C(Nc1ccccc1)c1cc(-c2ccncc2)nc2ccccc12 | Cytochrome P450 2C9 (Homo sapiens) | -1.00 |
| O=C(c1cc(-c2ccncc2)nc2ccccc12)N1CCCCC1 | Cytochrome P450 2C9 (Homo sapiens) | 1.00 |
| Cc1cc(C)c2nc(-c3ccncc3)cc(C(=O)Nc3ccc4ccccc4c3)c2c1 | Cytochrome P450 2C9 (Homo sapiens) | -1.96 |
| O=C(Nc1ccc2ccccc2c1)c1cc(-c2cccnc2)nc2ccc(Cl)cc12 | Cytochrome P450 2C9 (Homo sapiens) | 0.28 |
| O=C(c1cc(-c2cccnc2)nc2ccccc12)N1CCCCC1 | Cytochrome P450 2C9 (Homo sapiens) | 0.99 |
| O=C(c1cc(-c2ccccn2)nc2ccccc12)N1CCC(N2CCCC2)CC1 | Cytochrome P450 2C9 (Homo sapiens) | 1.88 |
| O=C(Nc1ccc2ccccc2c1)c1cc(-c2ccncc2)nc2ccccc12 | Cytochrome P450 2C9 (Homo sapiens) | -1.48 |

====

Quick note: these are pKd numbers for system: Cytochrome P450 2C9 (Homo sapiens, UniProt P11712)
Sequence (P11712 whole entry): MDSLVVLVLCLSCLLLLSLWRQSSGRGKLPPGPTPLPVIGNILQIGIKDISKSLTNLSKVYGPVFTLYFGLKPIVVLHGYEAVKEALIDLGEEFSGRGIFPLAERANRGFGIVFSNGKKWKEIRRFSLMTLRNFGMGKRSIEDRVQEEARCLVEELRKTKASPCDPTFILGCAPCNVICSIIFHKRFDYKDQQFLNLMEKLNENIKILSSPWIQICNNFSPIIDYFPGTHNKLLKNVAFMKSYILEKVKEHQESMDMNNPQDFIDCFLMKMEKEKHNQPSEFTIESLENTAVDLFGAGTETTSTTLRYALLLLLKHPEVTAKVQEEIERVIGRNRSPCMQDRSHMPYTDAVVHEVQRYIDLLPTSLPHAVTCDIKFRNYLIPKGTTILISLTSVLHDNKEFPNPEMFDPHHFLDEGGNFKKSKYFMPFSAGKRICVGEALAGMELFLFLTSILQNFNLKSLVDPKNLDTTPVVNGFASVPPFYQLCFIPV
pKd: −log10 of the molar value.

| mol | pKd |
| --- | --- |
| O=C(Nc1ccccc1)c1cc(-c2ccncc2)nc2ccccc12 | 6.49 |
| O=C(NCc1cccc2ccccc12)c1cc(-c2ccncc2)nc2ccccc12 | 5.89 |

====

- test_system: Cytochrome P450 2C9 (Homo sapiens, UniProt P11712)
- test_summary: Inhibition of purified CYP2C9

| mol | Ki |
| --- | --- |
| O=C(NCc1cccc2ccccc12)c1cc(-c2ccncc2)nc2ccccc12 | 113 nM |

====

// reported Ki per item
- test_system: Cytochrome P450 2C9 (Homo sapiens)
- test_summary: Inhibition of reconstituted CYP2C9
- Format: ADME

| mol | Ki |
| --- | --- |
| O=C(NCc1cccc2ccccc12)c1cc(-c2ccccn2)nc2ccccc12 | > 43.5 µM |
| Cc1cc(C)c2nc(-c3ccccn3)cc(C(=O)Nc3ccc4ccccc4c3)c2c1 | > 20.6 µM |
| O=C(Nc1ccc2ccccc2c1)c1cc(-c2cccnc2)nc2ccc(Br)cc12 | > 37.9 µM |

All values here come from ChEMBL document CHEMBL1151734.
